Entry source: the RNAGym collection of RNA variant scans (doi:10.7554/elife.80360)

B1: Hairpin Ribozyme (parent)
chain: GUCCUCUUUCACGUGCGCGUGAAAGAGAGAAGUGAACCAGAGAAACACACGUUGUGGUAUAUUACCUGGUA

Variants of: B1
Test: self-cleavage, relative activity (ratio to wild type); higher = more cleavage; co-transcriptional
Decide by self-cleavage: equal to or exceeding 0.2 means met, less means not met.

sequence_code="GUCCUCUUUCACGUGCGCGUGAAAGAGAGAAGUGAACCAGAGAAACACACGGUGUGGUAUUUUACCUGGUA [U52G A61U]" assigned_class="not met"

// next entry
Task item: Confirm if self-cleavage reported for the variant GUCCUCUUUCACGUGCGCGUGAAAGAGAGAAGUGAACCAGAGACACACACGUUGUGGUAUUUUACCUGGUA [A44C A61U] is 0.2 or above.
Reply: met
